Biological target: angiotensin II (AII) receptor (Rattus norvegicus)
Construct: Vascular smooth muscle cells, which had been separated from the aorta of a male Wistar rat and cultured on a 24-well multiplate; endogenous in cells
Sequence (P25095 whole entry): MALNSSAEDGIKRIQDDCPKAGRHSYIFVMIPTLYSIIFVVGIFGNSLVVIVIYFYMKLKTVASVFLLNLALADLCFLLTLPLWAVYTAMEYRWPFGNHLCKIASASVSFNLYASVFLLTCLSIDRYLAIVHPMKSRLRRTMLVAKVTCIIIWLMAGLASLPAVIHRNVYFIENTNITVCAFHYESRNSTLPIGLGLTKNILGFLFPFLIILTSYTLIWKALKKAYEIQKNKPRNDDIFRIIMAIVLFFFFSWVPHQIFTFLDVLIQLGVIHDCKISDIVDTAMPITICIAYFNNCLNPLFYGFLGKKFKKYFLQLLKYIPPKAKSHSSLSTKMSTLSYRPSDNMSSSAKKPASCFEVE
Experiment: Inhibitory action against the binding with angiotensin II (AII) receptor, 125I-AII competition on cultured rat aortic smooth muscle cells
Conditions: 50% substitution of ¹²⁵I-AII specific binding; ¹²⁵I-AII 2 x 10⁻¹⁰M; one hour at room temperature; rat vascular smooth muscle cells; read-out: IC₅₀
For each record, write down the corresponding IC50.
One number for each entry, in nM.

# example entries with known answers
State the measured IC50 (angiotensin II (AII) receptor (Rattus norvegicus)) of CCCC(=O)N=c1sc(C2CC2)nn1Cc1ccc(-c2ccccc2-c2nnn[nH]2)cc1
6.5

State the measured IC50 (angiotensin II (AII) receptor (Rattus norvegicus)) of CCCCC(=O)N(Cc1ccc(-c2ccccc2-c2nn[nH]n2)cc1)c1nnc(C2CC2)s1
10

State the measured IC50 (angiotensin II (AII) receptor (Rattus norvegicus)) of CCCC(=O)N(Cc1ccc(-c2ccccc2-c2nn[nH]n2)cc1)c1nnc(CC)s1
13

State the measured IC50 (angiotensin II (AII) receptor (Rattus norvegicus)) of CCCCC(=O)N=c1sc(CC)nn1Cc1ccc(-c2ccccc2-c2nnn[nH]2)cc1
17

State the measured IC50 (angiotensin II (AII) receptor (Rattus norvegicus)) of CCCC(=O)N=c1sc(CC)nn1Cc1ccc(-c2ccccc2-c2nnn[nH]2)cc1
8

Can you give me IC50 for all of these, one by one?
1. CCCC(=O)N(Cc1ccc(-c2ccccc2-c2nn[nH]n2)cc1)c1nnc(C2CC2)s1
2. CCc1nn(Cc2ccc(-c3ccccc3-c3nnn[nH]3)cc2)c(=NC(=O)c2ccccc2C(=O)O)s1
3. O=C(O)c1csc(=NC(=O)C2CC2)n1Cc1ccc(-c2ccccc2-c2nnn[nH]2)cc1
4. CCCCc1nnc(N(Cc2ccc(-c3ccccc3-c3nn[nH]n3)cc2)C(=O)CCC)s1
5. O=C(N=c1sc(C2CC2)nn1Cc1ccc(-c2ccccc2-c2nn[nH]n2)cc1)C1CC1
6. CCc1nn(Cc2ccc(-c3ccccc3-c3nnn[nH]3)cc2)c(=NC(=O)c2ccccc2Cl)s1
7. CCCCc1nn(Cc2ccc(-c3ccccc3-c3nnn[nH]3)cc2)c(=NC(=O)CCC)s1
8. CCc1nn(Cc2ccc(-c3ccccc3-c3nnn[nH]3)cc2)c(=NC(=O)C2CC2)s1

1: 32; 2: 32; 3: 13; 4: 9.8; 5: 31; 6: 5.7; 7: 14; 8: 15

State the measured IC50 (angiotensin II (AII) receptor (Rattus norvegicus)) of CCCCc1nn(Cc2ccc(-c3ccccc3-c3nnn[nH]3)cc2)c(=NC(=O)CC)s1
6.8

meta.source: patent EP0656355A1
